parameter: melting point

Examples with their reported melting point follow.
CC1NNS(=O)(=O)c2c(Cl)cccc21 (centres unmarked)	202 to 203 °C
Cc1cc(Cl)c(Cl)c2c1C(C)NNS2(=O)=O (centres unmarked)	197 to 199 °C
COc1ccc2c(c1)CN(C)N(C)S2(=O)=O	142 to 143 °C
CCN1Cc2ccccc2S(=O)(=O)N1C	140 to 142 °C
Cc1cc2c(c(Cl)c1Cl)S(=O)(=O)N(C)NC2C (centres unmarked)	141 to 142 °C

(Q) Please give the measured melting point for this compound: `CCN1Cc2cc(OC)ccc2S(=O)(=O)N1C`
(A) 123 to 125 °C

(Q) Please give the measured melting point for this compound: COc1ccc2c(c1OC)S(=O)(=O)NNC2C (centres unmarked)
(A) 211 to 213 °C

(Q) Please give the measured melting point for this compound: `COc1ccc2c(c1)CN(C)NS2(=O)=O`
(A) 186 to 187 °C

(Q) Please give the measured melting point for this compound: CCC1NN(C)S(=O)(=O)c2c1ccc(Cl)c2Cl (centres unmarked)
(A) 139 to 141 °C

(Q) Please give the measured melting point for this compound: CCN1NC(C)c2cccc(Cl)c2S1(=O)=O (centres unmarked)
(A) 79 to 80 °C

(Q) Please give the measured melting point for this compound: CCCN1NS(=O)(=O)c2c(ccc(Cl)c2Cl)C1C (centres unmarked)
(A) 164 to 165 °C

---

parameter: melting point

Examples with their reported melting point follow.
CN1Cc2ccccc2S(=O)(=O)N1 [Example 32]	176 to 178 °C
COc1ccc2c(c1Cl)S(=O)(=O)N(C)NC2C (stereo not drawn) [Example 19]	141 to 143 °C
Cc1cc2c(c(Cl)c1Cl)S(=O)(=O)NNC2C (stereo not drawn) [Example 6]	253 to 254 °C
CCC1c2ccc(Cl)cc2S(=O)(=O)NN1C(C)C (stereo not drawn) [Example 30]	99 to 101 °C
CCC1NN(CC)S(=O)(=O)c2c1ccc(Cl)c2Cl (stereo not drawn) [Example 22]	118 to 120 °C
Cc1cc(Cl)c(Cl)c2c1C(C)NN(C)S2(=O)=O (stereo not drawn) [Example 18]	101 to 102 °C

(Q) Please give the measured melting point for this molecule: CCC1NNS(=O)(=O)c2c1ccc(Cl)c2Cl (stereo not drawn) [Example 4]
(A) 222 to 224 °C

(Q) Please give the measured melting point for this molecule: COc1ccc2c(c1Cl)S(=O)(=O)NNC2C (stereo not drawn) [Example 9]
(A) 231 to 233 °C

(Q) Please give the measured melting point for this molecule: CN1NCc2ccc(Cl)c(Cl)c2S1(=O)=O [Example 20]
(A) 124 to 125 °C

---

melting point: recorded values

Examples with their reported melting point follow.
CCN1Cc2cc(OC)ccc2S(=O)(=O)N1	180 to 181 °C
CCC1c2ccc(Cl)cc2S(=O)(=O)NN1CC (centres unmarked)	109 to 111 °C
COc1cccc2c1S(=O)(=O)NNC2C (centres unmarked)	231 to 233 °C
Cc1cc(Cl)c(Cl)c2c1C(C)N(C)NS2(=O)=O (centres unmarked)	236 to 238 °C
CCC1NNS(=O)(=O)c2cc(Cl)ccc21 (centres unmarked)	128 to 130 °C

(Q) Please give the measured melting point for this compound: CC1c2ccc(Cl)c(Cl)c2S(=O)(=O)NN1C (centres unmarked)
(A) 194 to 195 °C

(Q) Please give the measured melting point for this compound: CC1c2ccc(Cl)c(Cl)c2S(=O)(=O)N(C)N1C (centres unmarked)
(A) 135 to 136 °C
